# test system: Histone deacetylase (Homo sapiens) (UniProt Q13547+O15379+Q9UBN7+Q92769+Q9UQL6+Q8WUI4+Q9BY41+Q96DB2+P56524+Q9UKV0+Q969S8)
# method notes: Inhibition of HDAC activity in human NB4 cells assessed as maximum acetylated tubulin at EC50 concentration after 24 hrs by Western blot analysis relative to control
# Format: cell-based
# stated conditions: NB-4
observable: Ratio
// keep it numeric: no unit symbol after the value

item smiles: CN1c2ccccc2C(=O)N(CCCCCC(=O)NO)c2ccccc21
reading: 40
//
item smiles: O=C(CCCCCN1C(=O)c2ccccc2Oc2ccc(Cl)cc21)NO
reading: 932
//
item smiles: COc1ccc2c(c1)N(CCCCCC(=O)NO)C(=O)c1ccccc1S2(=O)=O
reading: 30600
//
item smiles: COc1ccc2c(c1)N(CCCCCC(=O)NO)C(=O)c1ccccc1N2
reading: 199

Specify Ratio for `O=C(CCCCCN1C(=O)c2ccccc2Oc2ccccc21)NO` and stop.
2630
